Could you please report measured pKd for the items listed next?
subject_of_test: H7 Sh2 HA (A/Shanghai/2/2013), ectodomain trimer, cleavage state not stated (influenza A virus (A/Shanghai/2/2013))
protocol_notes: BLI
One number for each entry, as −log10 of the molar value.

binder	measurement
H7.5 Fab H-T57A (Fab, V domains shown) VH: QVQLVQSGAEVKKPGASVKVSCKASGYTLTRYYFHWVRQAPGQGFEWMGIINPNGGGASYAQKFGDRVIMTSDMSTSTIYMELSSLRSEDTAVYYCARDMPYYHDSGGPLFDLWGQGTLVTVSS VL: EIVMTQSPSSLSASVGDRVTITCRPSQSISTFLNWYEQKPGKAPKLLIYDASSLQSGVPSRFSGSGSGTEFTLTISSLQPEDFATYYCQQSFSTPYTFGQGTRLEIK	6.94

Kindly review the next binder as well.
Given H7.5 Fab L-Y96A (Fab, V domains shown) VH: QVQLVQSGAEVKKPGASVKVSCKASGYTLTRYYFHWVRQAPGQGFEWMGIINPNGGGTSYAQKFGDRVIMTSDMSTSTIYMELSSLRSEDTAVYYCARDMPYYHDSGGPLFDLWGQGTLVTVSS VL: EIVMTQSPSSLSASVGDRVTITCRPSQSISTFLNWYEQKPGKAPKLLIYDASSLQSGVPSRFSGSGSGTEFTLTISSLQPEDFATYYCQQSFSTPATFGQGTRLEIK , respond with its pKd. 6.26
